Target: AR-LBD (GST) (Rattus norvegicus)
Sequence (P15207 651-882 limits assumed): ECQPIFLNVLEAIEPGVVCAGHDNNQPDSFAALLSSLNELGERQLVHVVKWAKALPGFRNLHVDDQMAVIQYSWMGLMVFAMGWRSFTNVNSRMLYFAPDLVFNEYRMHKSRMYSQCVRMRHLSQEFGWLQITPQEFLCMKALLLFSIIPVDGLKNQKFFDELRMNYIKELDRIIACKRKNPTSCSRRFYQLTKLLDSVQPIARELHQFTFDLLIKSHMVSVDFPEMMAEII
Assay: AR binding, fluorescence polarization (PolarScreen AR Competitor Assay)
pIC50: −log10 of the molar value.
attribute.measured: pIC50

>  <test.smiles>
c1ccc(N2CCN(CCc3ccc(COc4ccc5c(c4)CCC5)cc3)CC2)cc1

>  <pIC50>
5.84

$$$$
>  <test.smiles>
COc1ccc(N2CCN(CCc3ccc(COc4ccc5c(c4)CCC5)cc3)CC2)cc1

>  <pIC50>
5.55

$$$$
>  <test.smiles>
FC(F)(F)c1ccc(N2CCN(CCc3ccc(COc4ccc5c(c4)CCC5)cc3)CC2)cc1

>  <pIC50>
5.84

$$$$
>  <test.smiles>
Cc1ccccc1N1CCN(CCc2ccc(COc3ccc4c(c3)CCC4)cc2)CC1

>  <pIC50>
5.63

$$$$
>  <test.smiles>
Clc1cccc(N2CCN(CCc3ccc(COc4ccc5c(c4)CCC5)cc3)CC2)c1Cl

>  <pIC50>
5.61

$$$$

A = Clc1ccccc1N1CCN(CCc2ccc(COc3ccc4c(c3)CCC4)cc2)CC1
B = Clc1ccc(N2CCN(CCc3ccc(COc4ccc5c(c4)CCC5)cc3)CC2)cc1
Query block: Kindly identify which of A and B has the larger recorded pIC50 value. Let me know the label of the one you choose.
Result block: B
(B: 6.19, A: 5.69)

1 = FC(F)(F)c1ccccc1N1CCN(CCc2ccc(COc3ccc4c(c3)CCC4)cc2)CC1
2 = COc1ccccc1N1CCN(CCc2ccc(COc3ccc4c(c3)CCC4)cc2)CC1
Query block: Hi! Which is lower in terms of pIC50, the first one 1 or the second one 2 ? Respond with the label that goes with your answer.
Result block: 2
